Quick reference: CC50 of the listed items.
Assay details: Cytotoxicity against HEK293T cells assessed as reduction in cell viability […] by resazurin dye based fluorescence assay
Design: species or system HEK-293T
Test context: human
# number only, unit µM dropped from output

q: I have this compound here, "Oc1c(/C=C/c2cc[n+](CCCCCCCCCCCCCCBr)cc2)cc2c3c1CCCN3CCC2.[Br-]" , and I need its recorded CC50.
a: 26.7

q: Repeat for the following compound: "Cc1c(Cl)c(O)cc(O)c1C(=O)OCCCCCCCCCCCCCCBr"
a: 55.9

q: Repeat for the following compound: "Cc1cc[n+](CCCCCCCCCCCCCCOC(=O)c2c(C)cc(O)cc2O)cc1"
a: 0.76

q: Repeat for the following compound: "Cc1cc[n+](CCCCCCCCCCCCCCOC(=O)c2c(O)cc(O)c(Cl)c2C)cc1"
a: 43.7
